Source of measurements: paper PMC3699901

TESTED_ON: T1, wild-type RXRα LBD without the fused coactivator peptide (human, UniProt P19793 227-462)
T1 sequence (looked up): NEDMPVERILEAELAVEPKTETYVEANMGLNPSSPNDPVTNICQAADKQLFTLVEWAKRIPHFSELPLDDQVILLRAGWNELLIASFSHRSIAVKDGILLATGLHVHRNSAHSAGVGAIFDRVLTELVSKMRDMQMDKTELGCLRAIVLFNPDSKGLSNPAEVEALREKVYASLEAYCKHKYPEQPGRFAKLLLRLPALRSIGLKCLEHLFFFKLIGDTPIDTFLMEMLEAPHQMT
ASSAY_INFO: fluorescence polarisation
Ends that are not written are not given here. * marks the point of attachment. 5FAM = O=C1OC2(c3ccc(O)cc3Oc3cc(O)ccc32)c2ccc(C(=O)*)cc21

{"BINDER": "5FAM-CPSSHSSLTERHKILHRLLQEGSPS [fluorescein labeled SRC-1 peptide (5-FAM-[residues removed]), residues 676-700]", "Kd, nM": 1560}
